molecular target: Enoyl-[acyl-carrier-protein] reductase [NADH] (Mycobacterium tuberculosis, UniProt P9WGR1)
Sequence (P9WGR1 whole entry): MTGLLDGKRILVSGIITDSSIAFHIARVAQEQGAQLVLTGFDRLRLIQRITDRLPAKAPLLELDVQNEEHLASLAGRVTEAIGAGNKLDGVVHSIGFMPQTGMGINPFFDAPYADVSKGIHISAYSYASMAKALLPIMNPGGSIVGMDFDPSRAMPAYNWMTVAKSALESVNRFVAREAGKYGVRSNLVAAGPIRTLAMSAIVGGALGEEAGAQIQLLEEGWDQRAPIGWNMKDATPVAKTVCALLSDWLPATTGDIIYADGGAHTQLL
assayMetric: pIC50
Value format note: pIC50 is -log10 of concentration (mol/L); just state the number.

**Query** Fill blank: measured pIC50 of the compound C/C=C(\C)c1cc(O)c(C)c(OC(=O)c2c(/C(C)=C/C)cc(O)c(C)c2O)c1 [AGONODEPSIDE A] is ____.
**Result** 4.12

This collection of values is drawn from ChEMBL document CHEMBL1150118.
